meta.source: the supplement of paper PMC13380429

System: Vero E6 infected with SARS-CoV-2
TEST_NAME: morphology score (similarity to uninfected cells); higher = more like uninfected cells
EXPERIMENTAL_CONDITIONS: 24 h
QUANTITY_KIND: morphology score

{"MOLECULE": "Nc1ncnc2nc(-c3ccc(N4CCOCC4)nc3)cc(-c3cccc(Br)c3)c12 (10 µM)", "morphology score": 0.0544}

Fill in morphology score for COC1=CC(=O)C[C@@H](C)[C@]12Oc1c(Cl)c(OC)cc(OC)c1C2=O [griseofulvin] (10 µM) tested with Vero E6 infected with SARS-CoV-2. 0.0707

Fill in morphology score for CCCCCCCCCCCCCCCCCCCCCCO [docosanol] (10 µM) tested with Vero E6 infected with SARS-CoV-2. 0.0474

Fill in morphology score for O=C1Cc2cc(CCN3CCN(c4nsc5ccccc45)CC3)c(Cl)cc2N1 [ziprasidone] (10 µM) tested with Vero E6 infected with SARS-CoV-2. 0.328

Fill in morphology score for CC(=O)O[C@H]1Cc2ccccc2N(C(N)=O)c2ccccc21 [eslicarbazepine-acetate] (10 µM) tested with Vero E6 infected with SARS-CoV-2. 0.137

Fill in morphology score for O=C(O)CCc1c[nH]c2ccccc12 (10 µM) tested with Vero E6 infected with SARS-CoV-2. 0.0821

---

Test system: Vero E6 infected with SARS-CoV-2
TEST_NAME: inhibition of SARS-CoV-2 cytopathic effect; higher = more antiviral protection, active = above 15
EXPERIMENTAL_CONDITIONS: 10000 nM; 48 h
Entries and their measured inhibition of SARS-CoV-2 cytopathic effect follow.

Sample answers from the record:
{"MOLECULE": "COC(=O)N[C@H](C(=O)N1CC2(CC2)C[C@H]1c1nc(-c2ccc3c(c2)C(F)(F)c2cc(-c4ccc5[nH]c([C@@H]6[C@H]7CC[C@H](C7)N6C(=O)[C@@H](NC(=O)OC)C(C)C)nc5c4)ccc2-3)c[nH]1)C(C)C", "MEAS_VALUE": "-5.41% (inactive)"}
{"MOLECULE": "CC(C)=CCC[C@](C)(O[C@@H]1O[C@H](CO)[C@@H](O)[C@H](O)[C@H]1O)[C@H]1CC[C@]2(C)[C@@H]1[C@H](O)C[C@@H]1[C@@]3(C)CC[C@H](O[C@@H]4O[C@H](CO)[C@@H](O)[C@H](O)[C@H]4O[C@@H]4O[C@H](CO)[C@@H](O)[C@H](O)[C@H]4O)C(C)(C)[C@@H]3CC[C@]12C [ginsenoside-RD]", "MEAS_VALUE": "0.18% (inactive)"}
{"MOLECULE": "O=C(NCCCCCCNC(=O)ON=C1CCCCC1)ON=C1CCCCC1", "MEAS_VALUE": "2.7% (inactive)"}
{"MOLECULE": "CO/N=C(\\C(=O)N[C@@H]1C(=O)N2C(C(=O)[O-])=C(C[n+]3ccn4ncccc43)CS[C@H]12)c1nsc(N)n1", "MEAS_VALUE": "-0.02% (inactive)"}
{"MOLECULE": "O=C1OC(c2ccc(O)cc2)(c2ccc(O)cc2)c2ccccc21", "MEAS_VALUE": "0.56% (inactive)"}

Please list inhibition of SARS-CoV-2 cytopathic effect recorded for the molecule CC(=O)[C@]1(N)Cc2c(O)c3c(c(O)c2[C@@H](O[C@H]2C[C@H](O)[C@H](O)CO2)C1)C(=O)c1ccccc1C3=O -0.58% (inactive)

Please list inhibition of SARS-CoV-2 cytopathic effect recorded for the molecule CCn1cc(C(=O)O)c(=O)c2cc(F)c(N3CCNC(C)C3)c(F)c21 (configuration not stated) -1.41% (inactive)

Please list inhibition of SARS-CoV-2 cytopathic effect recorded for the molecule O=C(Cc1ccc(Cl)c(Cl)c1)N1CCCC[C@@H]1CN1CCCC1 -4.8% (inactive)

Please list inhibition of SARS-CoV-2 cytopathic effect recorded for the molecule N#CC(c1ccnc(OCc2ccc(CN3CCOCC3)cc2)n1)c1nc2ccccc2s1 (configuration not stated) 6.87% (inactive)

Please list inhibition of SARS-CoV-2 cytopathic effect recorded for the molecule CC/C=C(\C(=O)N[C@@H]1C(=O)N2C(C(=O)OCOC(=O)C(C)(C)C)=C(COC(N)=O)CS[C@H]12)c1csc(N)n1 -0.26% (inactive)

Please list inhibition of SARS-CoV-2 cytopathic effect recorded for the molecule COc1ccc(NC(=O)c2ccc(-c3ccc(-c4noc(C)n4)cc3C)cc2)cc1OCCN(C)C 5.11% (inactive)

Please list inhibition of SARS-CoV-2 cytopathic effect recorded for the molecule O=c1c(-c2ccc(O)cc2)coc2c([C@@H]3O[C@H](CO)[C@@H](O)[C@H](O)[C@H]3O)c(O)ccc12 [kakonein] -6.74% (inactive)

Please list inhibition of SARS-CoV-2 cytopathic effect recorded for the molecule N[C@@H](Cc1c[nH]c2ccccc12)C(=O)O -10.4% (inactive)

Please list inhibition of SARS-CoV-2 cytopathic effect recorded for the molecule CCOc1ccc(Cc2nccc3cc(OCC)c(OCC)cc23)cc1OCC -8.28% (inactive)

Please list inhibition of SARS-CoV-2 cytopathic effect recorded for the molecule CCCOC(=O)c1ccccc1 [propyl-benzoate] 2.1% (inactive)

Please list inhibition of SARS-CoV-2 cytopathic effect recorded for the molecule C[C@@H]1C[C@H]2[C@@H]3CCC4=CC(=O)C=C[C@]4(C)[C@@]3(Cl)[C@@H](O)C[C@]2(C)[C@@]1(OC(=O)c1ccco1)C(=O)CCl 3.12% (inactive)

Please list inhibition of SARS-CoV-2 cytopathic effect recorded for the molecule CCCCCn1cc(C(=O)NC23CC4CC(CC(C4)C2)C3)c(=O)c2cc(-c3ccccc3)ccc21 -5.93% (inactive)

Please list inhibition of SARS-CoV-2 cytopathic effect recorded for the molecule N=C1N[C@H]2[C@H](CS[C@H]2CCCCC(=O)O)N1 -2.17% (inactive)

Please list inhibition of SARS-CoV-2 cytopathic effect recorded for the molecule O=C(O)c1cc(O)c2ccc(Cl)cc2n1 1.89% (inactive)

Please list inhibition of SARS-CoV-2 cytopathic effect recorded for the molecule CC(=O)O[C@]1(C(C)=O)CC[C@H]2[C@@H]3CCC4=CC(=O)CC[C@]4(C)[C@H]3CC[C@@]21C [hydroxyprogesterone-acetate] 10.9% (inactive)

Please list inhibition of SARS-CoV-2 cytopathic effect recorded for the molecule NS(=O)(=O)c1cc2c(cc1C(F)(F)F)NCNS2(=O)=O [hydroflumethiazide] 0.46% (inactive)
